The compounds listed here are annotated with their IC50.
Target: C-X-C chemokine receptor type 4 (Homo sapiens, UniProt P61073)
Sequence (P61073 whole entry): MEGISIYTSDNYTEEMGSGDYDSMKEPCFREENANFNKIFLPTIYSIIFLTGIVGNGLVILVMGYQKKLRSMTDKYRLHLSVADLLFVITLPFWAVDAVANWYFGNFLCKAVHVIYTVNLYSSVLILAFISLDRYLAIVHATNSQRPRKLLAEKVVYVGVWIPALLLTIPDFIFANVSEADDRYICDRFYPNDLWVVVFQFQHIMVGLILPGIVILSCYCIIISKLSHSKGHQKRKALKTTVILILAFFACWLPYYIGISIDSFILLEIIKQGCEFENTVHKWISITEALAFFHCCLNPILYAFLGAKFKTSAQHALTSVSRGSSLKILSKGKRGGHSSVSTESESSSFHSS
Test: Antagonist activity at CXCR4 in human Chem-1 cells assessed as inhibition of CXCL12-induced calcium flux
Assay type: functional, cell-based
Reported endpoint: IC50 (nM)

# Compound, Assay system, Reported endpoint, Value reported
rows = [
    ("NCCCCN(C[C@H]1CN(S(=O)(=O)c2ccc(Cl)cc2)CCN1)[C@H]1CCCc2cccnc21", "C-X-C chemokine receptor type 4 (Homo sapiens, UniProt P61073)", "IC50", 2),
    ("NCCCCN(C[C@H]1CN(C(=O)OCc2ccccc2)CCN1)[C@H]1CCCc2cccnc21", "C-X-C chemokine receptor type 4 (Homo sapiens, UniProt P61073)", "IC50", 18),
    ("NCCCCN(CC1CN(c2ccccc2)CCN1)[C@H]1CCCc2cccnc21 (mixture of isomers)", "C-X-C chemokine receptor type 4 (Homo sapiens, UniProt P61073)", "IC50", 130),
    ("NCCCCN(C[C@H]1CN(S(=O)(=O)c2ccc3ccccc3c2)CCN1)[C@H]1CCCc2cccnc21", "C-X-C chemokine receptor type 4 (Homo sapiens, UniProt P61073)", "IC50", 71),
    ("NCCCCN(C[C@H]1CNCCN1)[C@H]1CCCc2cccnc21", "C-X-C chemokine receptor type 4 (Homo sapiens, UniProt P61073)", "IC50", 255),
    ("NCCCCN(C[C@H]1CN(S(=O)(=O)c2cc3ccccc3s2)CCN1)[C@H]1CCCc2cccnc21", "C-X-C chemokine receptor type 4 (Homo sapiens, UniProt P61073)", "IC50", 39),
    ("NCCCCN(C[C@@H]1CNCCN1)[C@H]1CCCc2cccnc21", "C-X-C chemokine receptor type 4 (Homo sapiens, UniProt P61073)", "IC50", 1200),
    ("NCCCCN(C[C@H]1CN(S(=O)(=O)c2ccccc2)CCN1)[C@H]1CCCc2cccnc21", "C-X-C chemokine receptor type 4 (Homo sapiens, UniProt P61073)", "IC50", 2),
    ("NCCCCN(C[C@H]1CN(Cc2ccccc2)CCN1)[C@H]1CCCc2cccnc21", "C-X-C chemokine receptor type 4 (Homo sapiens, UniProt P61073)", "IC50", 230),
]

====

Biological target: hERG (KCNH2) (Homo sapiens)
Sequence (Q12809 whole entry): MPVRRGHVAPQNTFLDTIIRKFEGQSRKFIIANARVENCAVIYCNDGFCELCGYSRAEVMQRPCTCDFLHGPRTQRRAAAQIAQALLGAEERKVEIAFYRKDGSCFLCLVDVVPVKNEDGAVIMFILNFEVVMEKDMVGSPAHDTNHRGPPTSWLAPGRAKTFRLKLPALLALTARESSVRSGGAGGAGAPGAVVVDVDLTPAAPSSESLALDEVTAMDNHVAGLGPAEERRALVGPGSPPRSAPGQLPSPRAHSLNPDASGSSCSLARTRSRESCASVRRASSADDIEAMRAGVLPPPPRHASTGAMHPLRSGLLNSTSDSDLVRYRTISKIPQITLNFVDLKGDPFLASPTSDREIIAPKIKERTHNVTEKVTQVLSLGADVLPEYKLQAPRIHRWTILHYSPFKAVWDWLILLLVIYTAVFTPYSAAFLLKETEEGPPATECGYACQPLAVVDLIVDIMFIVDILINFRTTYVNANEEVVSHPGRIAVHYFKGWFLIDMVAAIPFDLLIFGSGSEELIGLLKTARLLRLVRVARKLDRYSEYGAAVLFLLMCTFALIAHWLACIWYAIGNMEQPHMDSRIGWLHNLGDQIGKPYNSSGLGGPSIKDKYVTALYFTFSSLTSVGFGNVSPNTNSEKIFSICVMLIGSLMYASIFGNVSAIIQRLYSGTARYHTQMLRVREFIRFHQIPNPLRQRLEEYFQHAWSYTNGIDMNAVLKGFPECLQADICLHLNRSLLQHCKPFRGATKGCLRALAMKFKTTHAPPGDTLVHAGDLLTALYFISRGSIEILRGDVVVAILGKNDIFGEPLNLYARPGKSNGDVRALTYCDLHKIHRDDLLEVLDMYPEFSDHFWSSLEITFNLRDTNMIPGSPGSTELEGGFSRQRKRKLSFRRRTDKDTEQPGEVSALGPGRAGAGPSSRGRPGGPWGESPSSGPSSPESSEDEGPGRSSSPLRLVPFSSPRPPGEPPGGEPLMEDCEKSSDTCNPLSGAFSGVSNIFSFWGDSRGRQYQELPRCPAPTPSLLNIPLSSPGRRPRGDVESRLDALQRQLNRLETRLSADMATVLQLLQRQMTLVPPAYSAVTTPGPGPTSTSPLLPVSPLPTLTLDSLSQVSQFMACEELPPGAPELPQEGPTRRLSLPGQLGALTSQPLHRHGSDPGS
Assay: Displacement of [3H]-dofetilide from human ERG in HEK293 cells at 10 uM
Type: cell-based
Conditions: HEK293 cells that express hERG, probe [3H]-dofetilide

# Entry smiles, Assay system, inhibition at 10 µM [%]
rows = [
    ("NCCCCN(C[C@@H]1CN(S(=O)(=O)c2ccccc2)CCN1)[C@H]1CCCc2cccnc21", "hERG (KCNH2) (Homo sapiens)", 79),
    ("NCCCCN(C[C@@H]1CN(C(=O)c2ccccc2)CCN1)[C@H]1CCCc2cccnc21", "hERG (KCNH2) (Homo sapiens)", 55),
]
